Just for reference, PubChem BioAssay (NCI) is where these values come from.

System: BT-549 breast
method.description: NCI-60 one-dose screen, 48 h (100 = growth as untreated, 0 = no growth, -100 = all killed)
cond: 10 µM unless noted
This is part of a sample that, as a whole, favours compounds with a hit. Of some 83,000 tested, about 20% had one in any assay.

smi	target	growth (%)
O=c1oc2ccccc2cc1-c1csc(N=Nc2c(O)[nH]c3ccc(Br)cc23)n1	BT-549 breast	102
Cc1nc2nc(C(F)(F)F)[nH]c2nc1C	BT-549 breast	100
COc1cccc2c(=O)c3c(sc12)c(NCCN(C)C)nc1ccccc13	BT-549 breast	61.3
O=C(CCc1nnc2sc(-c3ccccc3)nn12)c1nc2ccccc2[nH]1	BT-549 breast	98.4
CC(=O)Nc1ccc(S(=O)(=O)N/N=C\c2ccc(Cl)c(Cl)c2)cc1	BT-549 breast	99.7
O=C(Nc1ccccc1O)c1ccc(NS(=O)(=O)c2cccc3cccnc23)cc1	BT-549 breast	55.6
